Origin of measurements: patent US7259161B2

pKi values, listed per item
- TESTED ON: CDK-2/Cyclin A (Homo sapiens, UniProt P24941)
- ASSAY OVERVIEW: CDK2 inhibition assay (coupled enzyme assay)
- STATED CONDITIONS: 100 μM ATP, 25 nM CDK-2/Cyclin A
pKi: −log10 of the molar value.

NS(=O)(=O)c1ccc(Nc2nccc(-c3ccc4c(c3)NC(=O)CO4)n2)cc1 [IVa-23] ... > 6.00
CN1C(=O)COc2ccc(-c3ccnc(Nc4ccc(S(N)(=O)=O)cc4)n3)cc21 [IVa-24] ... > 6.00

Turning now to a further record.
Entry CN1C(=O)COc2ccc(-c3ccnc(Nc4cccc(S(N)(=O)=O)c4)n3)cc21 [IVa-22] , system CDK-2/Cyclin A (Homo sapiens, UniProt P24941): what pKi was measured? > 6.00
